- target_or_test_system: T1, EBOV VLP (Ebola virus (EBOV), UniProt Q05320 33-676)
- T1 sequence: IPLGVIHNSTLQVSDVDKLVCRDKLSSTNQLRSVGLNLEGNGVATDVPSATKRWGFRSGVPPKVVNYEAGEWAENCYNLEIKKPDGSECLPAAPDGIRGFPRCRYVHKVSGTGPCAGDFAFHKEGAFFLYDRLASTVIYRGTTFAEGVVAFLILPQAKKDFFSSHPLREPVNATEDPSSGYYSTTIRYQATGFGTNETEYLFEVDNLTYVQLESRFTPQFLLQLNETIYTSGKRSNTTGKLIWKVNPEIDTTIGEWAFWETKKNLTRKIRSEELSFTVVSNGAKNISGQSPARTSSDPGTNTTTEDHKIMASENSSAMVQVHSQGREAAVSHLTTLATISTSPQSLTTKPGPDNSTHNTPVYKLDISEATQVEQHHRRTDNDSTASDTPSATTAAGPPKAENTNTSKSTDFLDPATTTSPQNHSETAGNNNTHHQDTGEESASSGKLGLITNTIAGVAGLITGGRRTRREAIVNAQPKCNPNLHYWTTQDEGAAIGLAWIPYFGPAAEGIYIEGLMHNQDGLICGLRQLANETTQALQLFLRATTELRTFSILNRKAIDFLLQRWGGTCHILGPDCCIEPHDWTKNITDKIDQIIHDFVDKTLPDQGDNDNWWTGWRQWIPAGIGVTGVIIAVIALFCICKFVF
- experiment_notes: ELISA
readout_type: pEC50
Numbers only, as −log10 of the molar value.

{"binder": "FVM16 (antibody, V domains shown) VH: EVQLVQSGAEVKRPGESLKISCRTSGYSFTSTWINWVRQMPGKGLEWLGSIYPGDSETKYNPSFQGHVTISADKSVTTTYLKWSSLKASDTATYYCVKGSETWGQGVLVTVSS VL: KPMLTQPASLSASPGASASLTCTFSGGINVAGYNILWYQQKAGSPPRYLLRYKSDSTKDQGSGVPSRFSGSKDASANTGILRISGLQSEDEADYYCAIGHSSGWVFGGGTRLTVL", "pEC50": 9.18}

// switching to the query binder
For the binder shown here, FVM10 (antibody, V domains shown) VH: QVQLVQSGAEVKRPGESLKISCQTSGYSFTDSWVAWVRQMPGKGLEWLGSIYPGDSETKYNPSFQGHVTISADKSISTAYLQWSSLKASDTATYYCAKGSETWGQGLRVTVSS VL: QAGLTQPASLSASPGASASLTCTFSGGINVAGYNILWYQQKPGSPPRYLLRYKSDSDKDQGSGVPSRFSGSKDASANTGILRISGLQSEDEADYYCAIGHSSGWIFGGGTRLTVL , give the reported pEC50.
9.19

Where these numbers come from: patent US20170334973A1
